- Test system: 233499-124-R-J3-PDC spheroids with HUVEC/MSC, viability;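 further: spheroids exposed to agents for seven days before readout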
- ASSAY_NOTES: Anticancer human tumor 233499-124-R-J3-PDC patient-derived colon adenocarcinoma cell line growth inhibition [PI3K]
- ASSAY_CONTEXT: second compound 0.0316 µM; first compound 3.16 µM; stronger effect = lower value
Label key: MET means viability, T/C under 80%; NOT MET means viability, T/C of 80% or more.

Solved cases (5 shown):
INSERT INTO assay_data (compound, experimental_system, label_class) VALUES
  ('Cn1ncc(Cl)c1-c1cc(C(=O)NC(CN)Cc2cccc(F)c2)sc1Cl (stereo not given) + Cc1nc(NC(=O)N2CCCC2C(N)=O)sc1-c1ccnc(C(C)(C)C(F)(F)F)c1', '233499-124-R-J3-PDC spheroids with HUVEC/MSC, viability', 'MET'),
  ('Cn1ncc(Cl)c1-c1cc(C(=O)NC(CN)Cc2cccc(F)c2)sc1Cl (stereo not given) + COc1c(OCCCN2CCOCC2)ccc2c3n(c(=NC(=O)c4cnc(N)nc4)nc12)CCN3', '233499-124-R-J3-PDC spheroids with HUVEC/MSC, viability', 'MET'),
  ('C=CC(=O)N1CCN(c2nc(=O)n(-c3c(C)ccnc3C(C)C)c3nc(-c4c(O)cccc4F)c(F)cc23)C(C)C1 (stereo not given) + Cc1nc(NC(=O)N2CCCC2C(N)=O)sc1-c1ccnc(C(C)(C)C(F)(F)F)c1', '233499-124-R-J3-PDC spheroids with HUVEC/MSC, viability', 'NOT MET'),
  ('C#Cc1c(F)ccc2cc(O)cc(-c3ncc4c(N5CC6CCC(C5)N6)nc(OCC56CCCN5CC(F)C6)nc4c3F)c12 (stereo not given) + COc1c(OCCCN2CCOCC2)ccc2c3n(c(=NC(=O)c4cnc(N)nc4)nc12)CCN3', '233499-124-R-J3-PDC spheroids with HUVEC/MSC, viability', 'MET'),
  ('CC(Cn1ccc(-c2ccc(C#N)c(Cl)c2)n1)NC(=O)c1cc(C(C)O)[nH]n1 (stereo not given) + Cc1nc(NC(=O)N2CCCC2C(N)=O)sc1-c1ccnc(C(C)(C)C(F)(F)F)c1', '233499-124-R-J3-PDC spheroids with HUVEC/MSC, viability', 'NOT MET');

Ask | Strictly below 80%: is that where viability, T/C of CC1(C)CCC(Nc2ncc(C(F)(F)F)c(-c3c[nH]c4c(P(C)(C)=O)c(C#N)ccc34)n2)CN1 (stereo not given) + COc1c(OCCCN2CCOCC2)ccc2c3n(c(=NC(=O)c4cnc(N)nc4)nc12)CCN3 sits?
Reply | MET

Ask | viability, T/C under 80%? Item: CC1(C)CCC(CN2CCN(c3ccc(C(=O)NS(=O)(=O)c4ccc(NCC5CCOCC5)c([N+](=O)[O-])c4)c(Oc4cnc5[nH]ccc5c4)c3)CC2)=C(c2ccc(Cl)cc2)C1 + CC(Nc1ccc2c(c1)OCCn1cc(N3C(=O)OCC3C(F)F)nc1-2)C(N)=O
Reply | NOT MET

Measured values drawn from PubChem BioAssay AID1963984 for this set.
